# subject of test: VIM-2 (Escherichia coli, UniProt Q5U7L7)
# assay overview: biochemical
# condition details: CCF2-FA fluorescence assay; read-out: VIM2 IC50
measured metric: log10 of IC50 (log10 of the value in nM)
The base-10 logarithm of IC50, taken with IC50 in nM, is what appears here.

Worked cases, log10 of IC50 given:
NC[C@@H](O)CNS(=O)(=O)c1ccc(N2CC[C@H](CN)[C@@H](O)C2)c(-c2nn[nH]n2)c1S(N)(=O)=O [Example 10] : 1.43
C[C@H](CN)NS(=O)(=O)c1ccc(N2CCC(CN)CC2)c(-c2nnn[nH]2)c1S(N)(=O)=O [Example 36] : 0.41
NS(=O)(=O)c1c(S(=O)(=O)N[C@@H]2CCNC2)ccc(N2CCN(CCO)CC2)c1-c1nnn[nH]1 [Example 102] : 0.90
NCCNS(=O)(=O)C1CCN(c2ccc(S(=O)(=O)N[C@@H](CN)CO)c(S(N)(=O)=O)c2-c2nn[nH]n2)CC1 [Example 202] : 0.20
NS(=O)(=O)c1c(S(=O)(=O)N[C@@H]2CCNC2)ccc(N2CCC(S(N)(=O)=O)CC2)c1-c1nnn[nH]1 [Example 80] : -0.18

Input line: Please give the documented log10 of IC50 of NCCN1CCN(c2ccc(S(=O)(=O)NC[C@H](O)CN)c(S(N)(=O)=O)c2-c2nn[nH]n2)CC1=O [Example 147]
Output line: 1.75

Input line: Note log10 of IC50 for the compound shown: CN(CCO)CCN(C)c1ccc(S(=O)(=O)NC[C@H](O)CN)c(S(N)(=O)=O)c1-c1nn[nH]n1 [Example 136]
Output line: 1.44

Input line: Look up and state reported log10 of IC50 for NS(=O)(=O)c1c(S(=O)(=O)N[C@@H]2CCNC2)ccc(N2CCC(CO)CC2)c1-c1nnn[nH]1 [Example 101]
Output line: -0.41

Input line: Output log10 of IC50 of NS(=O)(=O)c1c(S(=O)(=O)N[C@@H]2CCNC2)ccc(N2CCC(CF)CC2)c1-c1nnn[nH]1 [Example 89]
Output line: -0.18
